TESTED TARGET: Calcitonin gene-related peptide type 1 receptor (Homo sapiens, UniProt Q16602)
Sequence (Q16602 whole entry): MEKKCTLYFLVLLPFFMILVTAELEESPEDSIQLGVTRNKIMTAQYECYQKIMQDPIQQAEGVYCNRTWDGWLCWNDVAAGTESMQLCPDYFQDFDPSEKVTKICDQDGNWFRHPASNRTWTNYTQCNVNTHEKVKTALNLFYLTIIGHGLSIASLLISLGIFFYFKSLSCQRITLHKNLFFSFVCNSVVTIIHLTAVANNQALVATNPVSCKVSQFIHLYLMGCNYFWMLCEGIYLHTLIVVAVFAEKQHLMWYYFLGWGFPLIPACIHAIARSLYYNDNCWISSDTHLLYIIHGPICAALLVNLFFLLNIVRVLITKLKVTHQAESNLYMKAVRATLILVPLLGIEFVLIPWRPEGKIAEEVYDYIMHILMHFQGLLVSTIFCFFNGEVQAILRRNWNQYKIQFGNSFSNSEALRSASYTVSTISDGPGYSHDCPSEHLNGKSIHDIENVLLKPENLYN
EXPERIMENTAL DETAILS: Antagonist activity at human CL receptor expressed in E10 cells assessed as CGRP-stimulated cAMP production
PROPERTY NAME: IC50 (nM)
One number for each entry, in nM.

Solved cases below.
O=C1NC[C@H](c2ccccc2)CC[C@H]1NC(=O)N1CCC(n2c(=O)[nH]c3ncccc32)CC1    520
CN(C)CCN1C[C@H](c2cccc(F)c2F)CC[C@@H](NC(=O)N2CCC(n3c(=O)[nH]c4ncccc43)CC2)C1=O    16

Please supply IC50 for each of the following items, keeping them in order.
1. CCN1C[C@H](c2cccc(F)c2F)CC[C@@H](NC(=O)N2CCC(n3c(=O)[nH]c4ncccc43)CC2)C1=O
2. O=C(N[C@@H]1CC[C@@H](c2cccc(F)c2F)CN(Cc2ccccn2)C1=O)N1CCC(n2c(=O)[nH]c3ncccc32)CC1
3. O=C(N[C@@H]1CC[C@@H](c2cccc(F)c2F)CN(CC(F)F)C1=O)N1CCC(n2c(=O)[nH]c3ncccc32)CC1
4. O=C(N[C@@H]1CC[C@@H](c2cccc(F)c2F)CN(CCO)C1=O)N1CCC(n2c(=O)[nH]c3ncccc32)CC1
5. O=C1NC[C@H](c2ccccc2F)CC[C@H]1NC(=O)N1CCC(n2c(=O)[nH]c3ncccc32)CC1
6. O=C1NC[C@H](c2cccc(F)c2)CC[C@H]1NC(=O)N1CCC(n2c(=O)[nH]c3ncccc32)CC1

Result:
6
2
5
15
65
220
